Listed here: items and their measured Activity.
Target: Adenosine receptor A2b (Homo sapiens) (UniProt P29275)
Sequence (P29275 whole entry): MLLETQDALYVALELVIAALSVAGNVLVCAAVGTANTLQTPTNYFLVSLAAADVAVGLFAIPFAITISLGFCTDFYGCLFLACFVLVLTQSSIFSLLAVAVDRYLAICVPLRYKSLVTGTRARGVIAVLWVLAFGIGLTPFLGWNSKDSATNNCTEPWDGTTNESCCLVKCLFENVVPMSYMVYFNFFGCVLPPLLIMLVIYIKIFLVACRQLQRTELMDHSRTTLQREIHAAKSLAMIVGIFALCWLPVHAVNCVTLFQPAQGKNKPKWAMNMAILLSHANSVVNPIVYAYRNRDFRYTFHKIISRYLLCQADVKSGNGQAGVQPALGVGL
Assay: Displacement of [3H]MRS1754 from human adenosine A2B receptor expressed in CHO cells at 1 uM
Assay type: cell-based
Conditions: filed as antagonist
# output: bare number, implied unit %

- STRUCTURE: "CC(C)C(=O)Nc1nc(-c2ccccc2)cc(-c2ccccc2)n1"
  EXPERIMENTAL_TARGET: "Adenosine receptor A2b (Homo sapiens) (UniProt P29275)"
  Activity, %: 79
- STRUCTURE: "O=C(Nc1cc(-c2ccccc2)nc(-c2ccccc2)n1)C1CCC1"
  EXPERIMENTAL_TARGET: "Adenosine receptor A2b (Homo sapiens) (UniProt P29275)"
  Activity, %: 74
- STRUCTURE: "CCC(CC)C(=O)Nc1cc(-c2ccccc2)nc(-c2ccccc2)n1"
  EXPERIMENTAL_TARGET: "Adenosine receptor A2b (Homo sapiens) (UniProt P29275)"
  Activity, %: 72
- STRUCTURE: "O=C(Nc1cc(-c2ccccc2)nc(-c2ccccc2)n1)C1CCCC1"
  EXPERIMENTAL_TARGET: "Adenosine receptor A2b (Homo sapiens) (UniProt P29275)"
  Activity, %: 52

Next, consider the following compound.
So what's the measured Activity for this one? CCCC(=O)Nc1nc(-c2ccccc2)cc(-c2ccccc2)n1 54
